# Test system: EGFR-Del19/T790M/C797S
# Assay Name: EGFR degradation HTRF assay in H1975-clone #28 cells
# Type: cell-based
# Test Settings: H1975-clone #28 (Del19/T790M/C797S) cells, 16 h treatment, maximum percentage of inhibition (degradation)
What Dmax (%) H1975 # 28 DTC was measured for each of the following?
All answers are understood in %, so give the number only.

[in] Can you share its Dmax (%) H1975 # 28 DTC? I mean this compound: CCc1cc(Nc2ncc(Cl)c(Nc3ccc4nc(C)c(F)cc4c3P(C)(C)=O)n2)c(OC)cc1N1CCC2(CCN(CCc3cc(F)c([C@H]4CCC(=O)NC4=O)c(F)c3)CC2)CC1 [Example 41]
[out] 86

[in] Fill in: Dmax (%) H1975 # 28 DTC of CCc1cc(Nc2ncc(Br)c(Nc3ccc4nc(C)c(F)cc4c3P(C)(C)=O)n2)c(OC)cc1N1CCC2(CCN(CCN(C)c3cc(F)c([C@H]4CCC(=O)NC4=O)c(F)c3)CC2)CC1 [Example 44] is ___
[out] 90

[in] State the recorded Dmax (%) H1975 # 28 DTC for this entry: CCc1cc(Nc2ncc(Br)c(Nc3ccc4nc(C)c(F)cc4c3P(C)(C)=O)n2)c(OC)cc1N1CC2(C1)CN(C1CCN(c3cc(F)c([C@H]4CCC(=O)NC4=O)c(F)c3)CC1)C2 [Example 64]
[out] 94

[in] Look up Dmax (%) H1975 # 28 DTC: CCc1ncc2c(P(C)(C)=O)c(Nc3nc(Nc4cc(CC)c(N5CCC(N6CC7(CCN(c8cccc9c8n(C)c(=O)n9C8CCC(=O)NC8=O)CC7)C6)CC5)cc4OC)ncc3Br)ccc2n1 (stereo not drawn) [Example 31]
[out] 80

[in] May I ask what Dmax (%) H1975 # 28 DTC has been recorded for CCc1cc(Nc2ncc(Br)c(Nc3ccc4nc(C)c(F)cc4c3P(C)(C)=O)n2)c(OC)cc1N1CCC2(CCN(CC3CCN(c4cc(F)c([C@H]5CCC(=O)NC5=O)c(F)c4)CC3)CC2)CC1 [Example 79] ?
[out] 90

[in] I'd like to know its Dmax (%) H1975 # 28 DTC. The compound in question is CCc1cc(Nc2ncc(Br)c(Nc3ccc4nc(C)c(F)cc4c3P(C)(C)=O)n2)c(OC)cc1N1CCC2(CCN(CCN(C)c3cccc4c3CN(C3CCC(=O)NC3=O)C4=O)CC2)CC1 (stereo not drawn) [Example 34]
[out] 80

====

# Target: EGFR-L858R/T790M/C797S (Homo sapiens, UniProt P00533, C797S/L858R/T790M)
# Construct: expressed in transfected cells; host or cells: H1975-clone #25 (lentiviral over-expression, endogenous EGFR knocked out)
# Sequence (P00533 25-1210 T790M/C797S/L858R): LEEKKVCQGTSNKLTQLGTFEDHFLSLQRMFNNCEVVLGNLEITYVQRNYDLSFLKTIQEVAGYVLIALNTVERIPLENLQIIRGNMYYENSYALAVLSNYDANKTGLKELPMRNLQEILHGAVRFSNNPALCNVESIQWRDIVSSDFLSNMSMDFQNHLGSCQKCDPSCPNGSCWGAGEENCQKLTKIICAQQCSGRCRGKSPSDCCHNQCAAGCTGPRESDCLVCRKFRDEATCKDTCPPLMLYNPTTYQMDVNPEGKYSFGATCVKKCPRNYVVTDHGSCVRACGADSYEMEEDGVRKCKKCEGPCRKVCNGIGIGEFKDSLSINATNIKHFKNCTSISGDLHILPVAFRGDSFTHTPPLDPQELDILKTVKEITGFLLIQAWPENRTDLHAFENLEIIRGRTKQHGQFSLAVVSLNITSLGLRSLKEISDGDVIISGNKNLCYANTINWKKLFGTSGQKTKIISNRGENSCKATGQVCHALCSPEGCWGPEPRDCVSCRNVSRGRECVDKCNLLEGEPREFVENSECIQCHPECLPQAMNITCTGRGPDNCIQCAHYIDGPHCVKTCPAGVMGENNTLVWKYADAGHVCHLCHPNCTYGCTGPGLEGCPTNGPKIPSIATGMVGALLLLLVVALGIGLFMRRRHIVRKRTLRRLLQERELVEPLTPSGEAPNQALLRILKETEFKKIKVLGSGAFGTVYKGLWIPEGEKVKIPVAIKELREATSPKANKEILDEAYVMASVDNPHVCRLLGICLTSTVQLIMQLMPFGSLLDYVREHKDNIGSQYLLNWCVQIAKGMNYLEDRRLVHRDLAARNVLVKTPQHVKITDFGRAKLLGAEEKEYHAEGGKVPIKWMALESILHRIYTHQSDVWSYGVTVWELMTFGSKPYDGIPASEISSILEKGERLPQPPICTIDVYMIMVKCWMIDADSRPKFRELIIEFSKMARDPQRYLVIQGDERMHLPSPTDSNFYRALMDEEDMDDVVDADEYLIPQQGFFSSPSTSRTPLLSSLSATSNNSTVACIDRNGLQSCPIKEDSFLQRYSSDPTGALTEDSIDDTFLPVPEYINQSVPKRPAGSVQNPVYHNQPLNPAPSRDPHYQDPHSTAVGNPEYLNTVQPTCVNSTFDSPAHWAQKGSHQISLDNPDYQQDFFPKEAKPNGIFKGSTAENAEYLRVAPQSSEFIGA
# Assay Name: EGFR degradation HTRF assay in H1975-clone #25 cells
# Format: cell-based
# Test Settings: H1975-clone #25 (L858R/T790M/C797S) cells, 16 h treatment, IC50 (DC50), read-out: DC50(nM) H1975 # 25-LTC
Parameter Measured: DC50 (nM)
The response must be a number in nM with no trailing unit.

[in] Which DC50 is reported for this compound? CCc1cc(Nc2ncc(Br)c(Nc3ccc4nc(C)c(F)cc4c3P(C)(C)=O)n2)c(OC)cc1N1CCC(N2CCC3(CCN(c4cc(F)c([C@H]5CCC(=O)NC5=O)c(F)c4)C3)C2)CC1 (stereo partly drawn) [Example 17]
[out] 2.9

[in] Value lookup for DC50; key = CCc1cc(Nc2ncc(Br)c(Nc3ccc4nc(C)c(F)cc4c3P(C)(C)=O)n2)c(OC)cc1N1CCC2(CCN(C(=O)CN3CCC(c4ccc(NC5CCC(=O)NC5=O)cc4)CC3)CC2)CC1 (single isomer, unassigned) [Example 29]
[out] 3.8

[in] Using the record for CCc1cc(Nc2ncc(Br)c(Nc3ccc4nc(C)c(F)cc4c3P(C)(C)=O)n2)c(OC)cc1N1CCC2(CCN(CC3CCN(c4cc(F)c([C@H]5CCC(=O)NC5=O)c(F)c4)CC3)CC2)CC1 [Example 79] , report its DC50.
[out] 3.3

[in] Value lookup for DC50; key = CCc1cc(Nc2ncc(Br)c(Nc3ccc4nc(C)c(F)cc4c3P(C)(C)=O)n2)c(OC)cc1N1CCC(N2CCN(C(=O)C3CN(c4ccc(F)c5c4n(C)c(=O)n5[C@H]4CCC(=O)NC4=O)C3)CC2)CC1 [Example 24]
[out] 1.4

[in] Reported DC50 for CCc1cc(Nc2ncc(Br)c(Nc3ccc4nc(C)c(F)cc4c3P(C)(C)=O)n2)c(OC)cc1N1CCC(N2CC3(CCN(c4cc(F)c([C@H]5CCC(=O)NC5=O)c(F)c4)CC3)C2)CC1 (single isomer, unassigned) [Example 18] : what is it?
[out] 1.7

[in] Consider the compound CCc1cc(Nc2ncc(Br)c(Nc3ccc4nc(C)c(F)cc4c3P(C)(C)=O)n2)c(OC)cc1N1CCC2(CCN(CCc3cc(F)c([C@H]4CCC(=O)NC4=O)c(F)c3)CC2)CC1 [Example 6] and give its measured DC50.
[out] 9

[in] I'd like to know its DC50. The compound in question is CCc1ccc2c(P(C)(C)=O)c(Nc3nc(Nc4cc(CC)c(N5CCC(N6CCC(N7CC(c8cc(F)c([C@H]9CCC(=O)NC9=O)c(F)c8)C7)CC6)CC5)cc4OC)ncc3Br)ccc2n1 (single isomer, unassigned) [Example 30]
[out] 10.8

[in] // returns reported DC50 for input CCc1cc(Nc2ncc(Cl)c(Nc3ccc4nc(C)c(F)cc4c3P(C)(C)=O)n2)c(OC)cc1N1CCC2(CC1)CCN(C1CCN(c3cc(F)c([C@H]4CCC(=O)NC4=O)c(F)c3)CC1)CC2 [Example 2]
[out] 3.4

[in] Quick one: DC50 of CCc1cc(Nc2ncc(Br)c(Nc3ccc4nc(C)c(F)cc4c3P(C)(C)=O)n2)c(OC)cc1N1CC2(C1)CN(C1CCN(c3cc(F)c([C@H]4CCC(=O)NC4=O)c(F)c3)CC1)C2 [Example 64] ?
[out] 1.5

====

# Tested on: EGFR-Del19/T790M/C797S
# Assay Name: EGFR degradation HTRF assay in H1975-clone #28 cells
# Assay type: cell-based
# Test Settings: H1975-clone #28 (Del19/T790M/C797S) cells, 16 h treatment, maximum percentage of inhibition (degradation)
# if value of Dmax (%) H1975 # 28 DTC reaches 90%, tag True; if it stays below, tag False

[in] Hello, I need to know if CCc1cc(Nc2ncc(Br)c(Nc3ccc4nc(C)c(F)cc4c3P(C)(C)=O)n2)c(OC)cc1N1CCC2(CCN(C[C@@H]3CCN(c4ccc5c(c4)C(=O)N(C4CCC(=O)NC4=O)C5=O)C3)CC2)CC1 (stereo partly shown) has measured Dmax (%) H1975 # 28 DTC not below 90%. Thanks!
[out] False

[in] Confirm if Dmax (%) H1975 # 28 DTC reported for the molecule CCc1ncc2c(P(C)(C)=O)c(Nc3nc(Nc4cc(CC)c(N5CCC(N6CCN([C@H]7CCN(c8cc(F)c([C@H]9CCC(=O)NC9=O)c(F)c8)C7)CC6)CC5)cc4OC)ncc3Br)ccc2n1 (single isomer, unassigned) is 90% or above.
[out] False

[in] Determine whether measured Dmax (%) H1975 # 28 DTC meets or exceeds 90% for CCc1cc(Nc2ncc(Br)c(Nc3ccc4nc(C)c(F)cc4c3P(C)(C)=O)n2)c(OC)cc1N1CCC2(CC1)CCN(C1CN(c3cc(F)c([C@H]4CCC(=O)NC4=O)c(F)c3)C1)CC2
[out] False

[in] Assess whether reported Dmax (%) H1975 # 28 DTC for CCc1cc(Nc2ncc(Br)c(Nc3ccc4nc(C)c(F)cc4c3P(C)(C)=O)n2)c(OC)cc1N1CCC2(CCN(CC3CN(c4cccc5c4CN(C4CCC(=O)NC4=O)C5=O)C3)CC2)CC1 (stereo not shown) sits at 90% or higher.
[out] False

[in] Evaluate CCc1cc(Nc2ncc(Cl)c(Nc3ccc4nc(C)c(F)cc4c3P(C)(C)=O)n2)c(OC)cc1N1CC2(C1)CN(C1CCN(c3cc(F)c([C@H]4CCC(=O)NC4=O)c(F)c3)CC1)C2 : Dmax (%) H1975 # 28 DTC at minimum 90%?
[out] True

[in] For this molecule, is measured Dmax (%) H1975 # 28 DTC 90% or higher? CCc1ncc2c(P(C)(C)=O)c(Nc3nc(Nc4cc(CC)c(N5CCC(N6CCN(C7CN(c8cccc9c8n(C)c(=O)n9C8CCC(=O)NC8=O)C7)CC6)CC5)cc4OC)ncc3Br)ccc2n1 (stereo not shown)
[out] False

[in] Determine whether this molecule has Dmax (%) H1975 # 28 DTC no lower than 90%: CCc1ncc2c(P(C)(C)=O)c(Nc3nc(Nc4cc(CC)c(N5CCC(N6CC7(CN(c8cccc9c8n(C)c(=O)n9C8CCC(=O)NC8=O)C7)C6)CC5)cc4OC)ncc3Br)ccc2n1 (stereo not shown)
[out] False

[in] Tell me whether Dmax (%) H1975 # 28 DTC is at least 90% here: CCc1cc(Nc2ncc(Br)c(Nc3ccc4nc(C)c(F)cc4c3P(C)(C)=O)n2)c(OC)cc1N1CCC(N2CC3(CN(c4cccc5c4n(C)c(=O)n5C4CCC(=O)NC4=O)C3)C2)CC1 (stereo not shown)
[out] False

[in] Reported Dmax (%) H1975 # 28 DTC at or above 90%? CCOc1cc(N2CCC(N3CC(N4CCC(c5cc(F)c([C@H]6CCC(=O)NC6=O)c(F)c5)CC4)C3)CC2)c(CC)cc1Nc1ncc(Cl)c(Nc2ccc3nc(C)c(F)cc3c2P(C)(C)=O)n1
[out] True

[in] Assess whether reported Dmax (%) H1975 # 28 DTC for CCc1cc(Nc2ncc(Br)c(Nc3ccc4nc(C)c(F)cc4c3P(C)(C)=O)n2)c(OC)cc1N1CCC2(CCN(CC3CCN(c4ccc5c(c4)C(=O)N(C4CCC(=O)NC4=O)C5=O)CC3)CC2)CC1 (stereo not shown) sits at 90% or higher.
[out] False

[in] Reported Dmax (%) H1975 # 28 DTC reaches at least 90% for CCc1cc(Nc2ncc(Br)c(Nc3ccc4nc(C)c(F)cc4c3P(C)(C)=O)n2)c(OC)cc1N1CCC2(CC1)CCN(C1CCN(c3ccc4c(c3)C(=O)N(C3CCC(=O)NC3=O)C4=O)CC1)CC2 (stereo not shown) ?
[out] False

[in] Is the recorded value of Dmax (%) H1975 # 28 DTC equal to or greater than 90% for this molecule? CCc1cc(Nc2ncc(Br)c(Nc3ccc4nc(C)c(F)cc4c3P(C)(C)=O)n2)c(OC)cc1N1CCC2(CC1)CCN(C1CCN(c3cccc4c3C(C)(C)C(=O)N4C3CCC(=O)NC3=O)CC1)CC2 (stereo not shown)
[out] False

[in] Test whether the molecule CCc1cc(Nc2ncc(Br)c(Nc3ccc4nc(C)c(F)cc4c3P(C)(C)=O)n2)c(OC)cc1N1CCC2(CCN(CC3CCN(c4ccc5c(c4)CN(C4CCC(=O)NC4=O)C5=O)CC3)CC2)CC1 (stereo not shown) records Dmax (%) H1975 # 28 DTC of 90% or higher.
[out] False
